pEC50 reference
Molecular target: Motilin receptor (Homo sapiens)
Sequence (O43193 whole entry): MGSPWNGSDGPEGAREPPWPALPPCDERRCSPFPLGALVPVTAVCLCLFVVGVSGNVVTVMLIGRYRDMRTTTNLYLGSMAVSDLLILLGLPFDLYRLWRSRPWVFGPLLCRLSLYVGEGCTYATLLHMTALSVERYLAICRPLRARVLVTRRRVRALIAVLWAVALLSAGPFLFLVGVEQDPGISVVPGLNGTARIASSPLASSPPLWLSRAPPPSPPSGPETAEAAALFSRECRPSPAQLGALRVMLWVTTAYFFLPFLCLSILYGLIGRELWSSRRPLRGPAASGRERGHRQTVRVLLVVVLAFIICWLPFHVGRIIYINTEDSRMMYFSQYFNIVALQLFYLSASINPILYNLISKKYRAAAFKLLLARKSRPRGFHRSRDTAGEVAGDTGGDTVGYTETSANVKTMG
Experiment: SUPPLEMENTARY: Agonist activity at human recombinant motilin receptor expressed in CHO cells by calcium mobilization-based FLIPR assay. Same assay as CHEMBL942680
Reminder that pEC50 means the negative base-10 logarithm of the concentration expressed in mol/L.

Briefly, pEC50 measured for C[C@@H]1CN(Cc2ccc(CC(=O)N3CCC(Nc4ccc(C#N)cc4)CC3)cc2)CCN1 : 7.80

What the record says about C[C@H]1CN(Cc2ccc(N(C)C(=O)c3cnc(-c4ccc(F)cc4)nc3)cc2)CCN1 : pEC50 is 8.30

Field pEC50 (entry C[C@@H]1CN(Cc2ccn(-c3cccnc3N3CCC(Nc4ccc(F)cc4)CC3)n2)C[C@H](C)N1 ) reads 8.70

Measured pEC50 of C[C@@H]1CN(Cc2ccc(CC(=O)N3CCC(Nc4ccc(F)c(F)c4)CC3)cc2)CCN1 : 7.90

Looking up Cc1nc(-c2cccc(C#N)c2)ccc1C(=O)N(C)c1ccc(CN2CCN[C@@H](C)C2)cc1 , I see its pEC50 listed as 8.80
